- target_desc: Human recombinant PDE10A1 (Homo sapiens, UniProt Q9Y233)
- Sequence (Q9Y233 1-779 isoform Q9Y233-1): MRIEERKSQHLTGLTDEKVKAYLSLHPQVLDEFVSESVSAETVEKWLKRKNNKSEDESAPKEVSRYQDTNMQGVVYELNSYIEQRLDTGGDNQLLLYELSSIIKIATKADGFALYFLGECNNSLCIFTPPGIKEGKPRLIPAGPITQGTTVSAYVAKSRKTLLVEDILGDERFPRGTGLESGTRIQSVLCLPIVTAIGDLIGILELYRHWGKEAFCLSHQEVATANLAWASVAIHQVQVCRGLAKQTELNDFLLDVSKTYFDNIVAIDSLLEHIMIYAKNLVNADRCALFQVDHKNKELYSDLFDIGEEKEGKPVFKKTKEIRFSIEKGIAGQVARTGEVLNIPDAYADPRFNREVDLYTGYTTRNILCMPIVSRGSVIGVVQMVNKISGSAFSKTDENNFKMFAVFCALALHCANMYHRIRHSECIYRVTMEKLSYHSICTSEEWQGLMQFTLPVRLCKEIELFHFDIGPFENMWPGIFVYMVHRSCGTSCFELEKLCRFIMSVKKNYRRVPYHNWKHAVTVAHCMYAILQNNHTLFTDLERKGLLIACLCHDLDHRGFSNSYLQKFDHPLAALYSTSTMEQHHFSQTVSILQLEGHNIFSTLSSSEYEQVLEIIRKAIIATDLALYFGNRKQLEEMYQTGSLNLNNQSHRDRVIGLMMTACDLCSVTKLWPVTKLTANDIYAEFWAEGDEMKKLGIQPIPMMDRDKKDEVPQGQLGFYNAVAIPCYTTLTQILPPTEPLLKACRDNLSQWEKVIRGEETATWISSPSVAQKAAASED
- protocol_notes: In Vitro PDE10 Assay (scintillation proximity assay, [3H]cAMP)
- details: PDE10A1 0.02 nM, 10 nM [3H]cAMP, 30 minutes at room temperature; Ki by Cheng and Prusoff
pKi: −log10 of the molar value.
Reported pKi values are given for each entry in this list.
test_readout: pKi

In [3]: df
Out[3]:
                                    molecule  test_readout  measurement
 0  Cn1c(CCNc2cccc3ccn4c(C(F)(F)F)nnc4c23)nc2ccccc21 [Example 8]           pKi       > 7.30
 1  CCc1nnc2c(C(=O)NCCc3nc4cc(Cl)ccc4[nH]3)cccn12 [Example 1DD]           pKi       > 7.30
 2  O=C(NCCc1nc2cc(Cl)ccc2[nH]1)c1cccn2c(C(F)(F)F)nnc12 [Example 1B]           pKi       > 7.30
 3  CC(C)c1nnc2c(C(=O)NCCc3nc4cc(Cl)ccc4[nH]3)cccn12 [Example 1S]           pKi       > 7.30
 4  CC(C)(C)c1nnc2c(C(=O)NCCc3nc4cc(Cl)ccc4s3)cc(Br)cn12 [Example 1M]           pKi       > 8.00
 5  CC(C)c1nnc2c(C(=O)NCCc3nc4ccccc4[nH]3)cccn12 [Example 1GG]           pKi       > 7.30
 6  O=C(NCCc1nc2ccc(F)cc2[nH]1)c1cccn2c(C3CC3)nnc12 [Example 1T]           pKi       > 7.30
 7  O=C(NCCc1nc2cc(Cl)ccc2[nH]1)c1cc(F)cn2c(C3CC3)nnc12 [Example 1FFF]           pKi       > 7.30
 8  CC(C)(C)c1nnc2c(C(=O)NCCc3nc4ccccc4[nH]3)cc(F)cn12 [Example 1MM]           pKi       > 7.30
 9  CC(C)(C)c1nnc2c(C(=O)NCCCc3nc4ccccc4[nH]3)cc(-c3ccncc3)cn12 [Example 4E]           pKi       > 7.30
10  CC(C)c1nnc2c(C(=O)NCCc3nc4cc(Cl)c(F)cc4[nH]3)cccn12 [Example 1DDD]           pKi       > 7.30
11  O=C(NCCc1nc2ccccc2[nH]1)c1cccn2c(C(F)(F)F)nnc12 [Example 1A]           pKi       > 7.30
12  O=C(NCCc1nc2ccc(F)cc2[nH]1)c1cc(Br)cn2nc(C3CC3)nc12 [Example 2D]           pKi       > 7.30
13  COc1ccc2nc(CCNC(=O)c3cccn4c(C5CCC5)nnc34)[nH]c2c1 [Example 1SS]           pKi       > 8.00
14  Cn1c(CCNC(=O)c2cccn3c(C4CC4)nnc23)nc2cc(Cl)ccc21 [Example 7A]           pKi       > 7.30
15  O=C(NCCc1nc2cc(Cl)ccc2[nH]1)c1cccn2nc(Br)nc12 [Example 2G]           pKi       > 7.30
16  Cn1c(CCNC(=O)c2cccn3c(C4CC4)nnc23)nc2ccccc21 [Example 7D]           pKi       > 7.30
17  CCn1c(CCNC(=O)c2cccn3c(C(C)C)nnc23)nc2ccccc21 [Example 7O]           pKi       > 8.00
18  CC(C)(C)c1nnc2c(C(=O)NCCCc3nc4ccccc4[nH]3)cc(Br)cn12 [Example 1Q]           pKi       > 8.00
19  COc1ccc2nc(CCNC(=O)c3cccn4c(C)nnc34)[nH]c2c1 [Example 1EE]           pKi       > 8.00
20  O=C(NCCc1nc2cc(Cl)ccc2[nH]1)c1cc(Br)cn2c(C3CC3)nnc12 [Example 1HH]           pKi       > 7.30
21  O=C(NCCc1nc2c(Cl)cc(C(F)(F)F)cc2[nH]1)c1cccn2c(C3CC3)nnc12 [Example 1VV]           pKi       > 8.00
22  Cn1c(CCNC(=O)c2cccn3c(C(C)(C)C)nnc23)nc2cc(Cl)ccc21 [Example 7E]           pKi       > 7.30
23  CC(C)(C)c1nnc2c(C(=O)NCCc3nc4cc(Cl)ccc4[nH]3)cccn12 [Example 1Z]           pKi       > 8.00
24  O=C(NCCc1nc2ccccc2[nH]1)c1cc(Br)cn2c(C3CC3)nnc12 [Example 1I]           pKi       > 7.30
25  CC(C)(C)c1nnc2c(C(=O)NCCCc3nc4ccccc4[nH]3)cc(-c3cccnc3)cn12 [Example 4F]           pKi       > 7.30
26  CC(C)(C)c1nnc2c(C(=O)NCCc3nc4ccccc4[nH]3)cc(Br)cn12 [Example 1E]           pKi       > 7.30
27  O=C(NCCc1nc2cc(Cl)ccc2[nH]1)c1cccn2c(C3CCC3)nnc12 [Example 1BBB]           pKi       > 7.30
28  O=C(NCCc1nc2ccccc2[nH]1)c1cccn2c(C3CC3)nnc12 [Example 1BB]           pKi       > 7.30
29  COc1ccc2nc(CCNC(=O)c3cccn4c(C5CC5)nnc34)[nH]c2c1 [Example 1UU]           pKi       > 7.30
30  Cc1nnc2c(C(=O)NCCc3nc4cc(Cl)ccc4n3C)cccn12 [Example 7K]           pKi       > 7.30
31  O=C(NCCc1nc2cc(Cl)ccc2[nH]1)c1cccn2c(C3CC3)nnc12 [Example 1R]           pKi       > 7.30
32  CC(C)(C)c1nnc2c(C(=O)NCCCc3nc4ccccc4[nH]3)cc(-c3cccc(O)c3)cn12 [Example 4D]           pKi       > 8.00
33  CC(C)(C)c1nnc2c(C(=O)NCCc3nc4ccc(F)cc4[nH]3)cccn12 [Example 1AA]           pKi       > 7.30
34  CC(C)(C)c1nnc2c(C(=O)NCCc3nc4ccccc4s3)cc(Br)cn12 [Example 1N]           pKi       > 8.00

----------
- target_desc: Human recombinant PDE10A1 (Homo sapiens)
- protocol_notes: In Vitro PDE10 Assay (scintillation proximity assay, [3H]cAMP)
- details: PDE10A1 0.02 nM, 10 nM [3H]cAMP, 30 minutes at room temperature; Ki by Cheng and Prusoff
Reported Ki values are given for each entry in this list.
test_readout: Ki

In [3]: df
Out[3]:
                                    compound  measurement
 0  Cn1c(CCCNc2cccc3ccn4c(C(F)(F)F)nnc4c23)nc2ccccc21 [Example 8C]      < 50 nM
 1  O=C(NCCCc1nc2ccccc2[nH]1)c1cccn2c(C3CC3)nnc12 [Example 1O]      < 10 nM
 2  COc1ccc2nc(CCNC(=O)c3cccn4c(C(C)C)nnc34)[nH]c2c1 [Example 1XX]      < 50 nM
 3  CC(C)(C)c1nnc2c(C(=O)NCCCc3nc4ccccc4[nH]3)cc(C#CCO)cn12 [Example 5B]      < 50 nM
 4  O=C(NCCc1nc2cc(Cl)ccc2[nH]1)c1cccn2c(Br)nnc12 [Example 1LL]      < 50 nM
 5  O=C(NCCc1nc2ccccc2[nH]1)c1cc(F)cn2c(C3CC3)nnc12 [Example 1NN]      < 50 nM
 6  O=C(NCCc1nc2cc(Cl)c(F)cc2[nH]1)c1cccn2c(C3CC3)nnc12 [Example 1ZZ]      < 50 nM
 7  Cn1c(CCCNc2cccc3ccn4c(C(C)(C)C)nnc4c23)nc2ccccc21 [Example 8B]      < 50 nM
 8  O=C(NCCc1nc2ccc(F)cc2[nH]1)c1cc(Br)cn2c(C3CC3)nnc12 [Example 1II]      < 50 nM
 9  CC(C)(C)c1nnc2c(C(=O)NCCc3nc4ccccc4[nH]3)cc(-c3ccncc3)cn12 [Example 4A]      < 50 nM
10  CC(C)(C)c1nnc2c(C(=O)NCCCc3nc4ccccc4[nH]3)cccn12 [Example 1P]      < 10 nM
11  Cc1nnc2c(C(=O)NCCc3nc4cc(Cl)ccc4[nH]3)cccn12 [Example 1FF]      < 50 nM
12  Cc1nc2c(C(=O)NCCc3nc4cc(Cl)ccc4[nH]3)cccn2n1 [Example 2B]      < 10 nM
13  O=C(NCCc1nc2ccccc2[nH]1)c1cc(Br)cn2nc(C3CC3)nc12 [Example 2F]      < 10 nM
